- test_method_notes: Effect of volatile aldehydes on sulfur-based malodor (headspace GC/MS)
- reported_conditions: 30 minutes at room temperature, 1 μL aldehyde in 10 mL headspace vial
quantity_kind: At least 20% butanethiol reduction at 30 minutes?

COc1cc(OC)c(C=O)c(OC)c1 [2,4,6-Trimethoxy-benzylaldehyde]: No
C=CC(C)CCC=C(C)CCC=O (stereo not drawn) [Floral Super]: Yes
CC(C=O)Cc1ccc(C(C)C)cc1 (stereo not drawn) [Cymal]: No

====

- test_method_notes: Vapor pressure at 25° C.
- Format: physicochemical
- reported_conditions: Table 3, materials of Accord C
Could you please mark 1.0 for values of VP (torr) @25° C. below 0.03 torr and 0.0 for values at or above it?

COc1ccccc1C=O: 0.0
CC(C)=CCCC(C)C=O (stereo not drawn): 0.0
COC1CC2CC1C1CC(C=O)CC21 (stereo not drawn): 1.0
C=CCCCCCCCCC=O: 0.0
CCc1ccc(CC(C)(C)C=O)cc1: 1.0
CC(C=O)Cc1ccc(C(C)C)cc1 (stereo not drawn): 1.0
CC(C=O)Cc1ccc2c(c1)OCO2 (stereo not drawn): 1.0
CC(C)c1cccc(C(C)CC=O)c1 (stereo not drawn) [Florhydral, 3-(3-Isopropyl-phenyl)-butyraldehyde]: 1.0

====

- test_method_notes: Effect of volatile aldehydes on sulfur-based malodor (headspace GC/MS)
- reported_conditions: 30 minutes at room temperature, 1 μL aldehyde in 10 mL headspace vial
quantity_kind: At least 20% butanethiol reduction at 30 minutes?

O=CC=Cc1ccccc1 [Cinnamic aldehyde, 3-phenyl-2-propenal]: Yes
CC(C)=CCCC(C)C=O (stereo not shown) [Melonal, 2,6-Dimethyl-5-Heptenal]: No
CC(C)(C)c1ccc(C=O)cc1 [4-tertbutyl benzylaldehyde]: No
CC(C)c1cccc(C(C)CC=O)c1 (stereo not shown) [Florhydral, 3-(3-Isopropyl-phenyl)-butyraldehyde]: Yes
